# run-description: qHTS assay for small molecule disruptors of the mitochondrial membrane potential (AID 720635); also: potency is read from the fitted curve at half-maximal effect
# setup-conditions: HepG2 mitochondrial membrane potential, Mito-MPS dye ratio; series mostly up to 83.2 µM
Records with an inconclusive call do not appear. The source made the active and inactive calls. Calls follow the shape of the dose curve; as a rule, active = well fitted inhibition curve with a large enough effect in the signal ratio in the repeat runs; inconclusive = weak or mixed curves, or effect the other way; inactive = flat fitted curve, though single readings scatter; the % refers to the signal ratio.
metric: Potency

>>> result("c1ccoc1")
"inactive"
>>> result("Nc1nc(N)nc(N)n1")
"inactive"
>>> result("Cc1ccc2ccccc2c1")
"inactive"
>>> result("O=NN1CCNCC1")
"inactive"
>>> result("CCCCCCCCCC(=O)O[C@H]1CC[C@H]2[C@@H]3CCC4=CC(=O)CC[C@@H]4[C@H]3CC[C@]12C")
"inactive"
>>> result("CCOP(=S)(Oc1ccc([N+](=O)[O-])cc1)c1ccccc1 (centres undefined)")
"21.7 µM (active)"
>>> result("CC(C)(OO)c1ccccc1")
"inactive"
>>> result("CO[C@@H]1[C@H](OC(=O)NC(=O)CCl)CC[C@]2(CO2)[C@H]1[C@@]1(C)O[C@@H]1CC=C(C)C")
"inactive"
>>> result("C/C(=C\\c1ccccc1)[N+](=O)[O-]")
"30.6 µM (active)"
>>> result("COP(=S)(OC)Oc1ccc([N+](=O)[O-])cc1Cl")
"24.3 µM (active)"

Q: Input COc1ccc(-c2ccccc2)cc1NNC(=O)OC(C)C , output reported Potency.
Ans: 56.8 µM (active)

Q: Input CCOP(=O)(OCC)SCCSCC , output reported Potency.
Ans: inactive

Q: Input O=C(CBr)c1ccccc1 , output reported Potency.
Ans: inactive

Q: Input O=Cc1ccc2c(c1)OCO2 , output reported Potency.
Ans: inactive

====

# run-description: qHTS assay to identify small molecule HDAC inhibitors - cell viability counter screen (AID 1259365); also: % is scaled to controls: 0 for no effect and ±100 for the full control effect; nearly all actives have a fitted effect of over 50% in size
# setup-conditions: HCT-116 viability, CellTiter-Glo ATP luminescence, 2 h; series mostly up to 92.4 µM
Activity calls are given as the source filed them. The call rests on the fitted dose curve; in most records, active means well fitted cell-killing curve with a large enough effect in the repeat runs; inconclusive means weak or mixed curves, or effect the other way; inactive means flat fitted curve, though single readings scatter.
metric: outcome

Solved cases below.
>>> result("CC(=O)CCC(C)=O")
"inactive"
>>> result("C=CCC1([C@H](C)CCC)C(=O)NC(=O)NC1=O")
"inactive"
>>> result("N#Cc1ccc(Cl)cc1")
"inactive"
>>> result("CCOC(=O)[C@]1(c2ccccc2)Oc2ccccc2[C@@H]1N")
"inactive"
>>> result("Cc1ccc(N)cc1C")
"inactive"

Q: Input O=S(=O)(Cl)c1ccccc1 , output reported outcome.
Ans: inactive

Q: Input Oc1ccc(Cl)c(Cl)c1Cl , output reported outcome.
Ans: inactive

Q: Input O=C(OC1CCCCC1)c1ccccc1C(=O)OC1CCCCC1 , output reported outcome.
Ans: inactive

Q: Input COP(=O)(OC)O/C(=C/Cl)c1cc(Cl)c(Cl)cc1Cl , output reported outcome.
Ans: inactive

Q: Input O=C(CBr)OCc1ccccc1 , output reported outcome.
Ans: inactive

Q: Input COc1c(C(C)(C)C)cc([N+](=O)[O-])c(C)c1[N+](=O)[O-] , output reported outcome.
Ans: inactive

Q: Input CCOP(=O)(OCC)SCCSCC , output reported outcome.
Ans: inactive

Q: Input C#CCOC(C(=O)OCCN(C)C)(c1ccccc1)c1ccccc1 , output reported outcome.
Ans: inactive

====

# tgt: Acetylcholinesterase (Homo sapiens)
# run-description: Acetylcholinesterase (AChE) small molecule antagonists: enzyme-based qHTS assay (AID 1347397); also: % is scaled to controls: 0 for no effect and ±100 for the full control effect; nearly all actives have a fitted effect of over 55% in size
# setup-conditions: AChE enzyme activity inhibition; series mostly up to 115 µM
Active and inactive are the calls of the source. Calls follow the shape of the full dose curve.
metric: Potency

Solved cases below.
>>> result("O=Cc1ccc2c(c1)OCO2")
"inactive"
>>> result("ClCCCCBr")
"inactive"
>>> result("CN1C(=O)NC(=O)C(C)(C2=CCCCC2)C1=O (stereo not given)")
"inactive"
>>> result("C=CCOC(C)=O")
"inactive"
>>> result("CCCCCCC#N")
"inactive"

Next, consider the following molecule.
Q: Input Sc1ccccc1Cl , output reported Potency.
Ans: inactive

====

# run-description: qHTS assay to identify small molecule agonists of the estrogen receptor beta (ER-beta) signaling pathway - cell viability counter screen (AID 1259380); also: % is scaled to controls: 0 for no effect and ±100 for the full control effect; nearly all actives have a fitted effect of over 30% in size
# setup-conditions: ER-beta-bla HEK293T viability, CellTiter-Glo luminescence, 16 h; series mostly up to 92.4 µM
Records with an inconclusive call do not appear. Active and inactive are the calls of the source. Calls follow the shape of the dose curve; as a rule, active = well fitted cell-killing curve with a large enough effect in the repeat runs; inconclusive = weak or mixed curves, or effect the other way; inactive = flat fitted curve, though single readings scatter.
Pick one: active, inactive

>>> answer_label("Cl/C=C\\C[N+]12CN3CN(CN(C3)C1)C2")
"inactive"

Shifting focus to the compound that follows.
Q: GET /call?item= C=CC[C@]1(O)CC[C@H]2[C@@H]3CCC4=CC(=O)CCC4=C3C=C[C@@]21C returns the recorded outcome of this test.
Ans: inactive

====

# run-description: qHTS RealTime-Glo MT Cell Viability Assay in HEK293 cells - 16 hour (AID 1224872); also: nearly all actives have a fitted effect of over 50% in size
# setup-conditions: RealTime-Glo luminescence; series mostly up to 76.8 µM
Results filed as inconclusive are left out. Activity calls are given as the source filed them. The call rests on the fitted dose curve; in most records, active means well fitted cell-killing curve with a large enough effect in the repeat runs; inconclusive means weak or mixed curves, or effect the other way; inactive means flat fitted curve, though single readings scatter.
Pick one: active, inactive

Check out these entries, answers already filled in.
>>> answer_label("CCOP(=S)(OCC)SCn1nnc2ccccc2c1=O")
"active"
>>> answer_label("CCO[C@H]1O[C@@H]2OC3(C)CC[C@H]4[C@H](C)CC[C@@H]([C@H]1C)[C@@]24OO3")
"inactive"
>>> answer_label("COP(=S)(OC)Oc1cc(Cl)c(I)cc1Cl")
"inactive"
>>> answer_label("COCC(C)N(C(=O)CCl)c1c(C)csc1C (configuration not stated)")
"inactive"
>>> answer_label("CC(C)N(C(=O)COc1nnc(C(F)(F)F)s1)c1ccc(F)cc1")
"active"

Q: GET /call?item= O=Cc1ccc(Cl)cc1Cl returns the recorded outcome of this test.
Ans: inactive

Q: GET /call?item= CC(C)=CCOc1c2occc2cc2ccc(=O)oc12 returns the recorded outcome of this test.
Ans: inactive

Q: GET /call?item= Cc1ccccc1CCl returns the recorded outcome of this test.
Ans: inactive

Q: GET /call?item= C=CCC1([C@H](C)CCC)C(=O)NC(=O)NC1=O returns the recorded outcome of this test.
Ans: inactive

Q: GET /call?item= CN1C(=O)NC(=O)C(C)(C2=CCCCC2)C1=O (configuration not stated) returns the recorded outcome of this test.
Ans: inactive

Q: GET /call?item= C=C(C#N)CCC#N returns the recorded outcome of this test.
Ans: inactive

Q: GET /call?item= C=CCOC(C)=O returns the recorded outcome of this test.
Ans: inactive

====

# tgt: Estrogen receptor beta (Homo sapiens) (UniProt Q92731)
# Sequence (Q92731 whole entry, looked up): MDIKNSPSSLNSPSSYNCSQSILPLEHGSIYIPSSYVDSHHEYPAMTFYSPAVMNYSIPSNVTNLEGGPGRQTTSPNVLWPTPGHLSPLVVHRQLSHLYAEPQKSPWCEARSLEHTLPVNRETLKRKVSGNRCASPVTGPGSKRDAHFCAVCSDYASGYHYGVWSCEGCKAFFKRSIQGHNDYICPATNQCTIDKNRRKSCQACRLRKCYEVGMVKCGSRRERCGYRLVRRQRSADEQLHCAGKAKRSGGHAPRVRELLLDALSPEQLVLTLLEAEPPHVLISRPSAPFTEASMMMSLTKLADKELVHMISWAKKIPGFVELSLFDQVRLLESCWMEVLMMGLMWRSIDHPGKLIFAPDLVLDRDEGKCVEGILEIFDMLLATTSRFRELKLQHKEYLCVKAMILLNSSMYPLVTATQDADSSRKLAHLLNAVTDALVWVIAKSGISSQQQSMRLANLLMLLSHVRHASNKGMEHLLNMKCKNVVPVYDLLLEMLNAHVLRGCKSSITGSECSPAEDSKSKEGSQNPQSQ
# run-description: qHTS assay to identify small molecule agonists of the estrogen receptor beta (ER-beta) signaling pathway (AID 1259377); also: % is scaled to controls: 0 for no effect and ±100 for the full control effect
# setup-conditions: ER-beta-UAS-bla HEK293T, beta-lactamase FRET ratio, 16 h; series mostly up to 92.4 µM
Inconclusive results are not listed. Calls of active or inactive are those of the source. The call rests on the fitted dose curve; in most records, active means well fitted activation curve with a large enough effect in the signal ratio in the repeat runs (not every such curve was filed as active); inconclusive means weak or mixed curves, or effect the other way; inactive means flat fitted curve, though single readings scatter; the % refers to the signal ratio.
metric: activation

Solved cases below.
>>> result("CCOP(=S)(Oc1ccc([N+](=O)[O-])cc1)c1ccccc1 (stereo not drawn)")
"inactive"
>>> result("c1ccc(CN2CCNCC2)cc1")
"inactive"
>>> result("CCCN(CCCl)c1c([N+](=O)[O-])cc(C(F)(F)F)cc1[N+](=O)[O-]")
"inactive"
>>> result("CS/C(C)=N/OC(=O)N(C)SN(C)C(=O)O/N=C(\\C)SC")
"inactive"
>>> result("NCC(CC(=O)O)c1ccc(Cl)cc1 (stereo not drawn)")
"-2.59% [at 0.348 µM] (inactive)"
>>> result("CN1C(=O)C(O)N=C(c2ccccc2)c2cc(Cl)ccc21 (stereo not drawn)")
"inactive"
>>> result("CCBr")
"inactive"
>>> result("CC1Sc2c(C(=O)O)c(=O)c3cc(F)c(N4CCNCC4)cc3n21 (stereo not drawn)")
"inactive"
>>> result("CO[C@@H]1[C@H](OC(=O)NC(=O)CCl)CC[C@]2(CO2)[C@H]1[C@@]1(C)O[C@@H]1CC=C(C)C")
"-2.62% [at 19 µM] (inactive)"
>>> result("COC(N)=O")
"inactive"

Q: Input Nc1nc(=S)[nH][nH]1 , output reported activation.
Ans: inactive

Q: Input c1ccc(C2CC2)c(OCC2=NCCN2)c1 , output reported activation.
Ans: inactive

Q: Input O=[N+]([O-])c1ccccc1CCl , output reported activation.
Ans: inactive

====

# run-description: qHTS assay to identify small molecule agonists of the sonic hedgehog signaling (Shh) pathway - cell viability counter screen (AID 1259366); also: nearly all actives have a fitted effect of over 50% in size
# setup-conditions: NIH/3T3 Gli1-Luc viability, CellTiter-Fluor, 24 h; series mostly up to 92.4 µM
Inconclusive results are not listed. Active and inactive are the calls of the source. Calls follow the shape of the dose curve; as a rule, active = well fitted cell-killing curve with a large enough effect in the repeat runs; inconclusive = weak or mixed curves, or effect the other way; inactive = flat fitted curve, though single readings scatter.
Pick one: 1 for active, 0 for inactive

Check out these entries, answers already filled in.
>>> answer_label("COCC(C)N(C(=O)CCl)c1c(C)csc1C (stereo not given)")
0
>>> answer_label("CC/C(=N\\OC/C=C/Cl)C1=C(O)CC(C2CCOCC2)CC1=O (stereo not given)")
0
>>> answer_label("Cc1ccc2ccccc2c1")
0
>>> answer_label("NNC(=O)c1cccnc1")
0
>>> answer_label("CC1C(=O)C[C@]2(C(C)C)C[C@H]12 (stereo not given in full)")
0
>>> answer_label("CCCCc1c(C)nc(NCC)nc1OS(=O)(=O)N(C)C")
1
>>> answer_label("Clc1cccc(SC2CCNCC2)n1")
0
>>> answer_label("Clc1cccc2ccccc12")
0
>>> answer_label("C=CC(C)=O")
0
>>> answer_label("CC(C)(C)C(O)C(Oc1ccc(Cl)cc1)n1cncn1 (stereo not given)")
0

Q: GET /call?item= O=C(NCc1cccnc1)Nc1ccc([N+](=O)[O-])cc1 returns the recorded outcome of this test.
Ans: 0
